Recorded pull-down binding Z-score by entry
# Tested on: TO-N3 (biotin conjugate)
# ASSAY_EXPLANATION: pull-down binding Z-score (relative to library population); higher = stronger binding
# SETUP_CONDITIONS: RNA library: Library-2
Give the figure by itself; no unit, no explanation.

>>> test_result("CCCGGCCGGCAGCCCCCGGCCUUAAAGCGCGGG [hsa-mir-4741]")
0.228
>>> test_result("UGGUUUGUAACACAAAGGAAUUUUUAUGAACCA [SHAPE_invivo_SARS-CoV-2_Motif_466]")
-0.0419
>>> test_result("GGCUGGACAGGAGAGGGCUCACCCAGG [hsa-mir-6775]")
1.78

Observed pull-down binding Z-score on TO-N3 (biotin conjugate) for UCUCGUUCACUGGGGA [IAV_invivo_PA_3_Motif_5+IAV_invivo_PA_3_Motif_5] , please.
0.198

// same read-out, input: UGUGUACACACA [SHAPE_invivo_SARS-CoV-2_Motif_249]
0.0581

---

# Tested on: G-clamp-N3 (biotin conjugate)
# ASSAY_EXPLANATION: pull-down binding Z-score (relative to library population); higher = stronger binding
# SETUP_CONDITIONS: RNA library: Library-1 (pre-miRNA loops + repeats)
Parameter threshold = -0.5. Response is Fulfilled when pull-down binding Z-score meets or exceeds it, else Not fulfilled.

>>> discrete_label("UGUUGGCAGCCCAAGAUGACA [hsa-mir-4686]")
"Not fulfilled"
>>> discrete_label("CCUCCCUAGGGGAUCCCAGGUAGG [hsa-mir-4688]")
"Not fulfilled"
>>> discrete_label("CAGUGCACCUUCAUGAACCG [hsa-mir-938]")
"Not fulfilled"
>>> discrete_label("AGGCCGACGAGCAGCGCAUCCUCUUACCCGGCUA [hsa-mir-138-2]")
"Not fulfilled"
>>> discrete_label("GAGAGAGUGCACAGCCAGCUCAGGGAUUAAAGCUCUUUCUCUCUCUCUC [hsa-mir-7110]")
"Fulfilled"

pull-down binding Z-score >= -0.5 for GGCGACUGGUGUCUAAUUUGUUUGUC [hsa-mir-4429] ?
Fulfilled

---

# Test system: G-clamp-N3 (biotin conjugate)
# ASSAY_EXPLANATION: pull-down binding Z-score (relative to library population); higher = stronger binding
# SETUP_CONDITIONS: RNA library: Library-1 (pre-miRNA loops + repeats)
Label Met when pull-down binding Z-score is at or above -0.9; anything below gets Not met.

Worked examples follow.
>>> discrete_label("AAUUUUUUUUUAAUUUAAAAAAUU [hsa-mir-3938]")
"Met"
>>> discrete_label("UUGAGGAGAGCACCACAGUGGUCAUCACACAG [hsa-mir-622]")
"Not met"
>>> discrete_label("GAGCCUGUCACAUCUCCAGACUC [hsa-mir-3925]")
"Not met"
>>> discrete_label("UAAUAACUGACAAACAGACAAUUG [hsa-mir-4774]")
"Met"
>>> discrete_label("GCCUGCCCUGAGUCCCCCAGCAGGU [hsa-mir-3907]")
"Met"
>>> discrete_label("GACCCCCAUGCACCCCUGUGGGCCCCUGGCAUC [hsa-mir-1257]")
"Not met"

Check if pull-down binding Z-score >= -0.9 (inclusive). Item: AUAUAAAAUGCAAUUA [hsa-mir-3945]
Not met

Try this sequence next: CAGAUACUUUUUAAAAUUUGUUUGAGUUGAGGCAGAUUAAAUAUCUG [hsa-mir-4742]
Met

Please answer likewise for AAAUAAAAGAUGGAGUCGUUUGACGUCUUUUAACACCCUUU [hsa-mir-8055]
Met

---

# Tested on: TO-N3-2 (biotin conjugate)
# ASSAY_EXPLANATION: pull-down binding Z-score (relative to library population); higher = stronger binding
# SETUP_CONDITIONS: RNA library: Library-2
Tick Y if pull-down binding Z-score is -0.2 or greater. Tick N if pull-down binding Z-score is less than -0.2.

Example entries and their recorded answers appear below.
>>> discrete_label("GAAGAGGGAGCAAUUGUUGGCGAAAUUUCACCAUUGCCUUCUCUUC [IAV_invivo_NS1_NEP_8_Motif_10+IAV_invivo_NS1_NEP_8_Motif_10]")
"N"
>>> discrete_label("CUGGGAGGUGUGAUAUCGUGGUUCCUGG [hsa-mir-3689c]")
"Y"
>>> discrete_label("CUUAGCUGUCUUUGAUAAAAAUCUCUAUGACAAACUUGUUUCAAGCUUUUUGGAAAUGAAGAGUGAAAAGCAAGUUGAACAAAAGAUCGCUGAG [SHAPE_invivo_SARS-CoV-2_Motif_73]")
"Y"
>>> discrete_label("GAGACAUUUAAACUGUCUU")
"N"
>>> discrete_label("GGUCAAAUCAAUGAUAUGAUUUUAUC")
"N"

For this sequence, is measured pull-down binding Z-score -0.2 or higher? GGUUCGUGUCUUUAGCUAUAGAUGCUUACC
Y

Cool, now UUUUGACAUUACUUUCAAAGACAAAA [hsa-mir-548f-1]
N

Then CUACACUAGUGCCACAAGAGCACUAUGUUAG ?
Y

Also, UGCAUAAAUGAAGCUGAAUGA [hsa-mir-6134] please.
Y

Would you kindly repeat that for GCGCGGCCAGAAACUGGCUGCGC [mismatch-GU] ?
N

Same read-out for GGUGGAAUUGGACGAUUCUACAUCCAAAUGUGCACC [IAV_invivo_NP_5_Motif_3+IAV_invivo_NP_5_Motif_3] ?
N

Cool, now UGGGUUGGGUUGGGUUGGGUUGGGUUGGGUUGGGUUGGGU [G4_r(UGGGU)8]
Y

Also, AUUCUGAUGAUCACCUAGCCAGAAU [hsa-mir-5583-2] please.
Y

---

# System: G-clamp-N3 (biotin conjugate)
# ASSAY_EXPLANATION: pull-down binding Z-score (relative to library population); higher = stronger binding
# SETUP_CONDITIONS: RNA library: Library-1 (pre-miRNA loops + repeats)
MEASURE_NAME: pull-down binding Z-score
Provide a numeric answer; units are not to be included.

Please give the measured pull-down binding Z-score for this sequence: CGGUACCCACUGCUGAGGGUGGGGACCA [hsa-mir-3691]
-0.0994

---

# System: TO-N3 (biotin conjugate)
# ASSAY_EXPLANATION: pull-down binding Z-score (relative to library population); higher = stronger binding
# SETUP_CONDITIONS: RNA library: Library-2
MEASURE_NAME: pull-down binding Z-score
Write the value as a bare number.

These solved cases illustrate the format of a correct answer.
>>> test_result("GUGAUUGUCUUCCUCACUCAAUCAG [hsa-mir-4704]")
0.0942
>>> test_result("GUGUACCUUCCUUACCCAGAUCCAUCAAGAAUCCUAGGGGCCGGCUGUUUUGUAGAUGAUAUCGUAAAAACAGAUGGUACAC [SHAPE_invivo_SARS-CoV-2_Multi_39_ComplexLevel_1]")
0.78
>>> test_result("AUGAGCUAAAAAUCCCCAAGCUCU [hsa-mir-4769]")
-0.477
>>> test_result("GUCAGGAGUGGCUUUCCUGAC [hsa-mir-4462]")
0.279
>>> test_result("GAUUCGCUUUACUUAUGACGAAUC [hsa-mir-382]")
-0.424

Now examine the next entry.
Please look up its pull-down binding Z-score: GGGAGGUAUGAUAUCGUGGUUCCU [hsa-mir-3689e]
0.8

---

# System: TO-N3 (biotin conjugate)
# ASSAY_EXPLANATION: pull-down binding Z-score (relative to library population); higher = stronger binding
# SETUP_CONDITIONS: RNA library: Library-2
MEASURE_NAME: pull-down binding Z-score

Record excerpt, results attached:
>>> test_result("GAGACGCUUUUAAAGUCUC [hsa-mir-3926-2]")
-0.855
>>> test_result("UAGACAAUUCUAGUCUUACUAUUAAGAAACCUAAUGAAUUAUCUA [SHAPE_invivo_SARS-CoV-2_Motif_135]")
-1.27
>>> test_result("GAGUCCUAUUUAUUUUUAGGAUAUUAGGAA [hsa-mir-5692c-2]")
-0.394
>>> test_result("GGAGCCCGAGCAGCCGCGGUGAA [hsa-mir-7706]")
2.17

Let us move to another entry and its pull-down binding Z-score.
What does the data say about its pull-down binding Z-score? Entry: GGGUGGGUGGGUGGGUGGGUGGGUGGGUGGGU [G4_r(GGGU)8]
7.37

---

# Tested on: TO-N3 (biotin conjugate)
# ASSAY_EXPLANATION: pull-down binding Z-score (relative to library population); higher = stronger binding
# SETUP_CONDITIONS: RNA library: Library-2
MEASURE_NAME: pull-down binding Z-score
Respond using a number only.

Solved entries (count: 3):
>>> test_result("UUUUGCAAUUUUUUAAUGACAAAA [hsa-mir-548t]")
-0.585
>>> test_result("GCUUCCACUGAGAAGU [DMSMaPseq_invitro_SARS-CoV-2_Motif_384]")
-1.1
>>> test_result("UACUGGUUCUAUACCUUGUA [SARS-CoV-2-Conserved-Structured-4_Interval-7011-7130_Motif_3]")
-0.0242

Entry under review: CUUAGUUUUAAG [DMSMaPseq_invitro_SARS-CoV-2_Motif_263] . Reported pull-down binding Z-score?
-1.02

Can you handle GACCCUGUGGGUU [SHAPE_invitro_SARS-CoV-2_Motif_242] next?
0.574
